# Tested on: MT-2 cells (Homo sapiens)
# method: In vitro for the cytotoxicity in MT-2 cells.
property name: CC50 (µg/mL)
Quick reminder: number only, in µg/mL, skip the unit.

q: Request - read-out CC50 | tested on MT-2 cells (Homo sapiens) | molecule COC(=O)c1cc(C(=O)OC)cc(N(C(=O)Nc2ccc(Cl)c(Cl)c2)C(C)c2nc3ccccc3c(=O)n2Cc2ccccc2)c1 (stereo unspecified)
a: 20.9

* * *

Catalogue of IC50 values
# method: Inhibitory activity against HIV-I mediated H9 cells fusion.
# Type: functional, cell-based, Human immunodeficiency virus 1

q: # lookup: IC50 of COC(=O)c1cc(C(=O)OC)cc(N(C(=O)Nc2ccc(Cl)c(Cl)c2)C(C)c2nc3ccccc3c(=O)n2Cc2ccccc2)c1 (stereo not drawn)
a: > 100 µg/mL

q: # lookup: IC50 of COc1ccc(S(=O)(=O)O)cc1/N=N/c1c(S(=O)(=O)O)cc2cc(Nc3nc(Nc4ccccc4)nc(Nc4cc(C)c(/N=N/c5cc(S(=O)(=O)O)cc6cc(S(=O)(=O)O)cc(O)c56)cc4OC)n3)ccc2c1O
a: 4.95 µg/mL

q: # lookup: IC50 of Cc1ccc(N(C(=O)Nc2ccccc2)C(C)c2nc(O)c3ccccc3n2)c(C)c1 (stereo not drawn)
a: > 100 µg/mL

q: # lookup: IC50 of Cc1ccc(N(C(=O)Nc2ccc(Cl)c(Cl)c2)C(C)c2nc(O)c3ccccc3n2)c(C)c1 (stereo not drawn)
a: > 100 µg/mL

q: # lookup: IC50 of O=P(CCP(c1ccccc1)c1ccccc1)(c1ccccc1)c1ccccc1
a: 52.27 µg/mL

q: # lookup: IC50 of CC(Nc1ccccc1Cl)c1nc2ccccc2c(=O)n1Cc1ccccc1 (stereo not drawn)
a: > 100 µg/mL

***
q: # lookup: IC50 of COc1ccc2c(c1)CCCC2=NOC(=O)Nc1ccccc1-c1ccccc1
a: > 100 µg/mL

q: # lookup: IC50 of CC(c1nc2ccc(Cl)cc2c(=O)n1Cc1ccccc1)N(C(=O)c1ccc([N+](=O)[O-])cc1)c1ccc(F)cc1 (stereo not drawn)
a: > 100 µg/mL

From: ChEMBL document CHEMBL1132348
